Parameter GI50: see the listing below.
# Tested on: NCI-H522
# Assay Summary: Growth inhibition of human NCI-H522 cells after 48 hrs by sulforhodamine B assay
# Format: functional
# Conditions Used: NCI-H522, 48 h
Endpoint Label: GI50 (µM)

>  <Chemical Smiles>
CC1(C)CC[C@@H]2CC(=O)O[C@@H](CO)CC(=O)O[C@@H]3C[C@@H](CCCCc4ccc(I)c(O)c4)O[C@@]1(C3)O2

>  <Rel>
=

>  <Value Observed>
12

$$$$
>  <Chemical Smiles>
CC(=O)Nc1ccc(O)cc1CCCC[C@@H]1C[C@@H]2C[C@@]3(O[C@H](CCC3(C)C)CC(=O)O[C@@H](CO)CC(=O)O2)O1

>  <Rel>
>

>  <Value Observed>
100

$$$$
>  <Chemical Smiles>
CC(=O)Nc1ccc(CCCC[C@@H]2C[C@@H]3C[C@@]4(O[C@H](CCC4(C)C)CC(=O)O[C@@H](CO)CC(=O)O3)O2)cc1O

>  <Rel>
=

>  <Value Observed>
25.7

$$$$
>  <Chemical Smiles>
CC1(C)CC[C@@H]2CC(=O)O[C@@H](CO)CC(=O)O[C@@H]3C[C@@H](CCCCc4cc(O)ccc4I)O[C@@]1(C3)O2

>  <Rel>
=

>  <Value Observed>
11.7

$$$$
>  <Chemical Smiles>
CC1(C)CC[C@@H]2CC(=O)O[C@@H](CO)CC(=O)O[C@@H]3C[C@@H](CCCCc4c(Br)cc(Br)c(O)c4Br)O[C@@]1(C3)O2

>  <Rel>
=

>  <Value Observed>
20.4

$$$$
>  <Chemical Smiles>
CC1(C)CC[C@@H]2CC(=O)O[C@@H](CO)CC(=O)O[C@@H]3C[C@@H](CCCCc4cc(O)c(Br)cc4Br)O[C@@]1(C3)O2

>  <Rel>
=

>  <Value Observed>
13.8

$$$$
>  <Chemical Smiles>
CC1(C)CC[C@@H]2CC(=O)O[C@@H](CO)CC(=O)O[C@@H]3C[C@@H](CCCCc4cc(O)ccc4Br)O[C@@]1(C3)O2

>  <Rel>
=

>  <Value Observed>
13.5

$$$$
>  <Chemical Smiles>
COc1cccc(CCCC[C@@H]2C[C@@H]3C[C@@]4(O[C@H](CCC4(C)C)CC(=O)O[C@@H](CO)CC(=O)O3)O2)c1

>  <Rel>
=

>  <Value Observed>
11.5

$$$$

Source: ChEMBL document CHEMBL2380295
